Test system: E. coli DH5a
Format: cell-based
reported conditions: DH5a, pH 7.2
Square brackets hold non-standard residues; d marks the D form. Peptide text beside a SMILES is read from it. Chg = N[C@H](C(=O)O)C1CCCCC1
measured parameter: E. coli DH5a MIC (µM)
The reply should be a number in µM, with the unit left off.

[
  {
    "compound": "CSCC[C@H](NC(=O)[C@H](Cc1ccccc1)NC(=O)[C@H](CCCNC(=N)N)NC(=O)[C@H](CCCNC(=N)N)NC(=O)[C@@H](NC(=O)[C@@H](NC(=O)[C@H](CCCNC(=N)N)NC(=O)[C@@H](N)CCCNC(=N)N)C(C)C)C1CCCCC1)C(=O)N[C@@H](CCCNC(=N)N)C(=O)N[C@@H](CCCNC(=N)N)C(=O)O [Peptide G11.18, RRV-Chg-RRFMRR] (H-RRV[Chg]RRFMRR-OH; N-terminus and C-terminus assumed)",
    "E. coli DH5a MIC, µM": 5.65
  },
  {
    "compound": "CSCC[C@H](NC(=O)[C@H](Cc1ccccc1)NC(=O)[C@@H](CCCNC(=N)N)NC(=O)[C@@H](CCCNC(=N)N)NC(=O)[C@H](CO)NC(=O)[C@H](NC(=O)[C@@H](CCCNC(=N)N)NC(=O)[C@@H](N)CCCNC(=N)N)C(C)C)C(=O)N[C@H](CCCNC(=N)N)C(=O)N[C@@H](CCCNC(=N)N)C(=O)O [Peptide G11.34, RrvSrrFMrR] (H-R[dR][dV]S[dR][dR]FM[dR]R-OH; N-terminus and C-terminus assumed)",
    "E. coli DH5a MIC, µM": 0.7
  },
  {
    "compound": "CSCC[C@@H](NC(=O)[C@H](Cc1ccccc1)NC(=O)[C@@H](CCCNC(=N)N)NC(=O)[C@@H](CCCNC(=N)N)NC(=O)[C@H](CO)NC(=O)[C@H](NC(=O)[C@H](CCCNC(=N)N)NC(=O)[C@@H](N)CCCNC(=N)N)C(C)C)C(=O)N[C@@H](CCCNC(=N)N)C(=O)N[C@@H](CCCNC(=N)N)C(=O)O [Peptide G11.35, RRvSrrFmRR] (H-RR[dV]S[dR][dR]F[dM]RR-OH; N-terminus and C-terminus assumed)",
    "E. coli DH5a MIC, µM": 0.7
  }
]

Query compound follows.
Lookup: Can you look up the measured E. coli DH5a MIC of CSCC[C@@H](NC(=O)[C@@H](Cc1ccccc1)NC(=O)[C@@H](CCCNC(=N)N)NC(=O)[C@@H](CCCNC(=N)N)NC(=O)[C@@H](CO)NC(=O)[C@H](NC(=O)[C@@H](CCCNC(=N)N)NC(=O)[C@H](N)CCCNC(=N)N)C(C)C)C(=O)N[C@H](CCCNC(=N)N)C(=O)N[C@H](CCCNC(=N)N)C(=O)O [Peptide G11.24, rrvsrrfmrr] (H-[dR][dR][dV][dS][dR][dR][dF][dM][dR][dR]-OH; N-terminus and C-terminus assumed) for me?
Found: 1.4

* * *

Tested on: Salmonella
Format: cell-based, S. typhimurium
reported conditions: pH 7.2
Square brackets hold non-standard residues; d marks the D form. Peptide text beside a SMILES is read from it. Chg = N[C@H](C(=O)O)C1CCCCC1
Catalogue of molecules with associated pIC50
The meaning of pIC50 here: minus log10 of the concentration in molar units.

Lookup: Can you look up the measured pIC50 of CSCC[C@H](NC(=O)[C@H](Cc1ccccc1)NC(=O)[C@@H](CCCNC(=N)N)NC(=O)[C@@H](CCCNC(=N)N)NC(=O)[C@H](CO)NC(=O)[C@H](NC(=O)[C@@H](CCCNC(=N)N)NC(=O)[C@@H](N)CCCNC(=N)N)C(C)C)C(=O)N[C@H](CCCNC(=N)N)C(=O)N[C@@H](CCCNC(=N)N)C(=O)O [Peptide G11.34, RrvSrrFMrR] (H-R[dR][dV]S[dR][dR]FM[dR]R-OH; N-terminus and C-terminus assumed) for me?
Found: 5.80

Lookup: Can you look up the measured pIC50 of CSCC[C@@H](NC(=O)[C@@H](Cc1ccccc1)NC(=O)[C@@H](CCCNC(=N)N)NC(=O)[C@@H](CCCNC(=N)N)NC(=O)[C@@H](CO)NC(=O)[C@H](NC(=O)[C@@H](CCCNC(=N)N)NC(=O)[C@H](N)CCCNC(=N)N)C(C)C)C(=O)N[C@H](CCCNC(=N)N)C(=O)N[C@H](CCCNC(=N)N)C(=O)O [Peptide G11.24, rrvsrrfmrr] (H-[dR][dR][dV][dS][dR][dR][dF][dM][dR][dR]-OH; N-terminus and C-terminus assumed) for me?
Found: 6.07

Lookup: Can you look up the measured pIC50 of CSCC[C@H](NC(=O)[C@H](Cc1ccccc1)NC(=O)[C@H](CCCNC(=N)N)NC(=O)[C@H](CCCNC(=N)N)NC(=O)[C@@H](NC(=O)[C@@H](NC(=O)[C@H](CCCNC(=N)N)NC(=O)[C@@H](N)CCCNC(=N)N)C(C)C)C1CCCCC1)C(=O)N[C@@H](CCCNC(=N)N)C(=O)N[C@@H](CCCNC(=N)N)C(=O)O [Peptide G11.18, RRV-Chg-RRFMRR] (H-RRV[Chg]RRFMRR-OH; N-terminus and C-terminus assumed) for me?
Found: 6.06

Lookup: Can you look up the measured pIC50 of CSCC[C@@H](NC(=O)[C@H](Cc1ccccc1)NC(=O)[C@@H](CCCNC(=N)N)NC(=O)[C@@H](CCCNC(=N)N)NC(=O)[C@H](CO)NC(=O)[C@H](NC(=O)[C@H](CCCNC(=N)N)NC(=O)[C@@H](N)CCCNC(=N)N)C(C)C)C(=O)N[C@@H](CCCNC(=N)N)C(=O)N[C@@H](CCCNC(=N)N)C(=O)O [Peptide G11.35, RRvSrrFmRR] (H-RR[dV]S[dR][dR]F[dM]RR-OH; N-terminus and C-terminus assumed) for me?
Found: 5.49

* * *

Test system: B. cereus
Type: cell-based
reported conditions: pH 7.2
Ends that are not written are not given here.
measured parameter: B. cereus MIC (µM)
The reply should be a number in µM, with the unit left off.

[
  {
    "sequence chain": "QRSVSRAATRVSRTGRSRWRDVSRNFMRR [Peptide G8.2]",
    "B. cereus MIC (µM)": 1.39
  }
]

Lookup: Can you look up the measured B. cereus MIC of RRVSRRFMRRGSRRVSRRFMRRGSRRVSRRFMRR [Peptide G11.10] for me?
Found: 0.35

Lookup: Can you look up the measured B. cereus MIC of FDTPRRVSRRFMRRLGH [Peptide G11.43, FDTPRRVSRRFMRRLGH] for me?
Found: 0.75

Lookup: Can you look up the measured B. cereus MIC of RRVSRRPMRRYRSRRPRRLV [Peptide G12.12] for me?
Found: 0.35

Lookup: Can you look up the measured B. cereus MIC of RRVSRRFMRRYQSRVPQGLV [Peptide G12.10] for me?
Found: 1.4

Lookup: Can you look up the measured B. cereus MIC of RRVSRPPPRRYRSRRPRRLV [Peptide G12.19] for me?
Found: 0.35

Lookup: Can you look up the measured B. cereus MIC of RRVSRPPMRRYRSRRPRRLV [Peptide G12.20] for me?
Found: 0.35

* * *

System: Salmonella
Assay type: cell-based, S. typhimurium
reported conditions: pH 7.2
Ends that are not written are not given here.
measured parameter: IC50

[
  {
    "sequence chain": "RRVSRRFMRR [Peptide G11.3, RRVSRRFMRR]",
    "reported value": "> 10 µM"
  }
]

Lookup: Request - read-out IC50 | tested on Salmonella | sequence QRSVSRPPTRVSRTGRARW [Peptide G13.12, QRSVSRPPTRVSRTGRARW]
Found: > 10 µM

Lookup: Request - read-out IC50 | tested on Salmonella | sequence SDVAKKFMKKQSKVIKKLV [Peptide G12.23, SDVAKKFMKKQSKVIKKLV]
Found: > 10 µM

* * *

Test system: Salmonella
Assay type: cell-based, S. typhimurium
reported conditions: pH 7.2
Ends that are not written are not given here.
Catalogue of sequences with associated log10(IC50)
Short version: log10 scale, IC50, nM.

Solved entries:
[
  {
    "sequence chain": "GRARWRDVARRFMRR [Peptide G14.9, GRARWRDVARRFMRR]",
    "log10(IC50)": 2.64
  },
  {
    "sequence chain": "RRLLRRLLRR [Peptide G11.20, RRLLRRLLRR]",
    "log10(IC50)": 3.89
  },
  {
    "sequence chain": "RRVSRPPPRRYRSRRPRRLV [Peptide G12.19]",
    "log10(IC50)": 2.86
  },
  {
    "sequence chain": "RRVSRRFMRRYRSRRPRRLV [Peptide G12.11]",
    "log10(IC50)": 2.61
  },
  {
    "sequence chain": "RRLLRRLLRRGSRRLLRRLLRR [Peptide G11.23]",
    "log10(IC50)": 2.65
  }
]

Lookup: Can you look up the measured log10(IC50) of KKVSKKFMKKYQSKVIQGLV [Peptide G12.9] for me?
Found: 2.93

Lookup: Can you look up the measured log10(IC50) of RRVSRRFMRRYRSRRIRRLV [Peptide G12.8] for me?
Found: 2.61
